Sourced from ChEMBL document CHEMBL5291721

log10 of AC50 values for the compounds below.
# target: 5-hydroxytryptamine receptor 2B (Homo sapiens); also: assay procedure not described here
# Sequence (P41595 whole entry): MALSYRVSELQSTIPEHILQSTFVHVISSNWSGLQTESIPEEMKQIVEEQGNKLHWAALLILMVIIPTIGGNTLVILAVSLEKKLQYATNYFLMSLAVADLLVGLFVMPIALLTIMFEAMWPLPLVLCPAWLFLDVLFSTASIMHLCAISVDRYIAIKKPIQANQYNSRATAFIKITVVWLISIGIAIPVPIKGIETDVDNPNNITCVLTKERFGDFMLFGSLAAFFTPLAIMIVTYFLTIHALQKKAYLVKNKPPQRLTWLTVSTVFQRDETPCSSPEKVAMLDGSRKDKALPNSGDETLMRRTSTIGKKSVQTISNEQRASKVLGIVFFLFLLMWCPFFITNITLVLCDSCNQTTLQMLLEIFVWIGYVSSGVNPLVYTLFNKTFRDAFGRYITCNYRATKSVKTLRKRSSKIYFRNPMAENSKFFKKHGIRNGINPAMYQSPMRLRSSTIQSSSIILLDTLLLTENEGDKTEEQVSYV
A difference of one corresponds to tenfold AC50; all values are log10 with AC50 in µM.

Sample answers from the record:
CNS(=O)(=O)Cc1ccc2[nH]cc(CCN(C)C)c2c1 : 1.15
COc1ccc(C(=O)Nc2ccccc2CCC2CCCCN2C)cc1 (stereo not given) [ENCAINIDE] : 0.56
COc1ccc(CCN(C)CCCC(C#N)(c2cc(OC)c(OC)c(OC)c2)C(C)C)cc1OC (stereo not given) : -1.09
CC(C)C[C@H]1C(=O)N2CCC[C@H]2[C@]2(O)O[C@](NC(=O)[C@@H]3C=C4c5cccc6[nH]c(Br)c(c56)C[C@H]4N(C)C3)(C(C)C)C(=O)N12 : -0.39
CCCCCNC(=N)N/N=C/c1c[nH]c2ccc(OC)cc12 : -1.69

Consider now this further compound.
Query :: # return log10 of AC50 for "C=CCN1C[C@H](C(=O)N(CCCN(C)C)C(=O)NCC)C[C@@H]2c3cccc4[nH]cc(c34)C[C@H]21" , test system: 5-hydroxytryptamine receptor 2B (Homo sapiens); also: assay procedure not described here
Result :: -2.07

* * *

# target: Voltage-dependent L-type calcium channel subunit alpha-1C (Rattus norvegicus); also: assay procedure not described here
# Sequence (P22002 whole entry): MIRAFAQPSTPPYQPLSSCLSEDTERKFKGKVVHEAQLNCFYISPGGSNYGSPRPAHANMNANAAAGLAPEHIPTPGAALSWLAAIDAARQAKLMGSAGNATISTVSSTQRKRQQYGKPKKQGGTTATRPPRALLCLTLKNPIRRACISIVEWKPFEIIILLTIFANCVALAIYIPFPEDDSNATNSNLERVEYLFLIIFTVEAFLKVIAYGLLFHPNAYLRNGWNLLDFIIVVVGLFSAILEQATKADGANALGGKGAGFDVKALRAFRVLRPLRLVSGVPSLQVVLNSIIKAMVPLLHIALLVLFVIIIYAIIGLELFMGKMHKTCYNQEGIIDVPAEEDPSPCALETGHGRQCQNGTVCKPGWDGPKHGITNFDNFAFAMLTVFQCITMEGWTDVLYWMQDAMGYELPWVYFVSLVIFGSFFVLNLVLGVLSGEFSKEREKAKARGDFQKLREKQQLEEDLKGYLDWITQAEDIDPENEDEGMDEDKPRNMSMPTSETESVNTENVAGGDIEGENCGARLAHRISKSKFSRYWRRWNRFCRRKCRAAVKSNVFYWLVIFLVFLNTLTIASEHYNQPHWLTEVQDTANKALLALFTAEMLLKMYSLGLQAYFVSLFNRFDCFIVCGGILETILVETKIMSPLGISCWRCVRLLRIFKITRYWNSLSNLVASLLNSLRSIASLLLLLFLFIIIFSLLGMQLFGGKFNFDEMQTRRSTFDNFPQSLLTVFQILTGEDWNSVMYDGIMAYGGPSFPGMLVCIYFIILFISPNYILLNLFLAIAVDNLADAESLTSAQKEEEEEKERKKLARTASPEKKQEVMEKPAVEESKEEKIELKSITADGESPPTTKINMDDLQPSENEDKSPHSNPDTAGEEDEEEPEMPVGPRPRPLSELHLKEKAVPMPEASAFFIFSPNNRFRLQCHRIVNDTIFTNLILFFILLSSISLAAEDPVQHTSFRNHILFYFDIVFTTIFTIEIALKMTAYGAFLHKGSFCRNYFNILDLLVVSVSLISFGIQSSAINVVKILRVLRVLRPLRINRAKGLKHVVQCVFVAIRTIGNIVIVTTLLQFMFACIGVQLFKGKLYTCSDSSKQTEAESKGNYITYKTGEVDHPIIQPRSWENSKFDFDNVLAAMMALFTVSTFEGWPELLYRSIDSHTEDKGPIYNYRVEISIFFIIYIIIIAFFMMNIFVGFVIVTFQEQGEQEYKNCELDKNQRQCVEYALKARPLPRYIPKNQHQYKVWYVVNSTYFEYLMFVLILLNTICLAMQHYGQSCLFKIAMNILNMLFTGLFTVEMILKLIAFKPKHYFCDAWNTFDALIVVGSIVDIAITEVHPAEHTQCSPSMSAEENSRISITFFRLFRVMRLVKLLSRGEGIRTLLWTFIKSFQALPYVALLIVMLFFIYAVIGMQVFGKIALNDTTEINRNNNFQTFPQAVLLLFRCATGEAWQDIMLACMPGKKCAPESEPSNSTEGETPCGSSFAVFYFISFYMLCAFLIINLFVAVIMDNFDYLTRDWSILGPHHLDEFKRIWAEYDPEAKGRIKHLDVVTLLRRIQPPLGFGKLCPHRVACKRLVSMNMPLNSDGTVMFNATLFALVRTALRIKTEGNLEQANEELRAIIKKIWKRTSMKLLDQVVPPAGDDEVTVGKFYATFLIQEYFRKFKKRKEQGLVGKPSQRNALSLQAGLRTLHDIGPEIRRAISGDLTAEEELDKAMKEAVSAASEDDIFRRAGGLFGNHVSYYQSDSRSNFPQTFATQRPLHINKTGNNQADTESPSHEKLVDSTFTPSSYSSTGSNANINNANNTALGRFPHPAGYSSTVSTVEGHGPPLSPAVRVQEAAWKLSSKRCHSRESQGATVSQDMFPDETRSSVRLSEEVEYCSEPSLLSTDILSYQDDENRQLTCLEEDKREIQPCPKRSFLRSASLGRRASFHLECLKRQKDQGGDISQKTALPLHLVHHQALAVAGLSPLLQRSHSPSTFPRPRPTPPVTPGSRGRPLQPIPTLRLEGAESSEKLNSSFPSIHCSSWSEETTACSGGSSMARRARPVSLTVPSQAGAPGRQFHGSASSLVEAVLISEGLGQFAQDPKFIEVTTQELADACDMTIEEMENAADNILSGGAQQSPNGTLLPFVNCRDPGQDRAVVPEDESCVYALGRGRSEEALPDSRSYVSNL
# Type: functional
AC50 values for the compounds below.

COc1ccc(-c2ccc3cc(C(=O)O)ccc3c2)cc1C12CC3CC(CC(C3)C1)C2 : 1.5 µM
N#Cc1ccc([C@H]2CCc3cncn32)c(F)c1 : > 10 µM

Query :: Look up and report measured AC50 for this entry: "CC=CC(=O)N(CC)c1ccccc1C"
Result :: > 10 µM

* * *

Observed AC50 for Sodium-dependent dopamine transporter (Homo sapiens), reported per entry below.

Sample answers from the record:
CC(=O)NCCCS(=O)(=O)O [ACAMPROSATE] : > 30 µM
CC(C)OC(=O)CCC/C=C\C[C@@H]1[C@@H](CC[C@@H](O)CCc2ccccc2)[C@H](O)C[C@@H]1O : > 30 µM
C[C@]12CCC(=O)C=C1CC[C@@H]1[C@@H]2[C@@H](O)C[C@@]2(C)[C@H]1CC[C@]2(O)C(=O)CO [HYDROCORTISONE] : > 10 µM
CO[C@H]1C[C@@H]2CC[C@@H](C)[C@@](O)(O2)C(=O)C(=O)N2CCCC[C@H]2C(=O)O[C@H]([C@H](C)C[C@@H]2CC[C@@H](O)[C@H](OC)C2)CC(=O)[C@H](C)/C=C(\C)[C@@H](O)[C@@H](OC)C(=O)[C@H](C)C[C@H](C)/C=C/C=C/C=C/1C : > 30 µM

Query :: Look up and report measured AC50 for this entry: "CC[C@@H](C(N)=O)N1CCCC1=O"
Result :: > 30 µM

Query :: Look up and report measured AC50 for this entry: "CN1C(=O)OC(C)(C)C1=O"
Result :: > 10 µM

* * *

# target: UniProtKB P18825
# Sequence (P18825 whole entry): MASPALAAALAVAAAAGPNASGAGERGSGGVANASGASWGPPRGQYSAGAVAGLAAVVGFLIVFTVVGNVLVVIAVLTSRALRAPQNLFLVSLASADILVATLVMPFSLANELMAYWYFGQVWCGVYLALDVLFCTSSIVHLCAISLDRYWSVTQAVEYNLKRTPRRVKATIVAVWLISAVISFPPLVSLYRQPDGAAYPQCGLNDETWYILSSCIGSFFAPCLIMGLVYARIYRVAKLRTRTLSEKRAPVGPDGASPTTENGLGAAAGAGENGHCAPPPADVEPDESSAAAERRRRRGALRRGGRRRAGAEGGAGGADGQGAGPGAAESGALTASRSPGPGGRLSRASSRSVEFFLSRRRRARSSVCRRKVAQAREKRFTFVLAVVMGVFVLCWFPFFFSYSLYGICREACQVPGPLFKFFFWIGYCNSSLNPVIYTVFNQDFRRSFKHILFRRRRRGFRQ
# Assay type: functional
parameter measured: AC50

Sample answers from the record:
CCC(C)n1ncn(-c2ccc(N3CCN(c4ccc(OCC5COC(Cn6cncn6)(c6ccc(Cl)cc6Cl)O5)cc4)CC3)cc2)c1=O (stereo not drawn) : > 30 µM
CN1C(=O)C(O)N=C(c2ccccc2)c2cc(Cl)ccc21 (stereo not drawn) : > 10 µM
Cc1nnc2n1-c1ccc(Cl)cc1C(c1ccccc1Cl)=NC2 : > 10 µM

Consider now this further compound.
Query :: Look up and report measured AC50 for this entry: "COc1ccc(CC(C)(C)NC[C@H](O)c2cc(O)cc3c2OCC(=O)N3)cc1"
Result :: > 30 µM

* * *

Observed AC50 for UniProtKB P32245, reported per entry below.
Sequence (P32245 whole entry): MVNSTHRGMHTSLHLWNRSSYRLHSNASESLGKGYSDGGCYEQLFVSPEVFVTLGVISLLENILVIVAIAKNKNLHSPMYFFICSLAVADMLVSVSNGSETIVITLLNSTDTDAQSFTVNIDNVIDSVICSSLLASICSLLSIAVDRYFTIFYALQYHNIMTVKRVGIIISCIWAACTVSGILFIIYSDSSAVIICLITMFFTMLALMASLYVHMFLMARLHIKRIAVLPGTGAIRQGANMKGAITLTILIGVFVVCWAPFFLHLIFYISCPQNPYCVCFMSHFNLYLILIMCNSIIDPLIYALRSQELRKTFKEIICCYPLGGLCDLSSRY

Sample answers from the record:
CCCC(=O)O[C@]1(C(=O)CO)CC[C@H]2[C@@H]3CCC4=CC(=O)CC[C@]4(C)[C@H]3[C@@H](O)C[C@@]21C [HYDROCORTISONE BUTYRATE] : > 10 µM
CC[C@H]1OC(=O)[C@H](C)[C@@H](O[C@H]2C[C@@](C)(OC)[C@@H](O)[C@H](C)O2)[C@H](C)[C@@H](O[C@@H]2O[C@H](C)C[C@H](N(C)C)[C@H]2O)[C@](C)(O)C[C@@H](C)CN(C)[C@H](C)[C@@H](O)[C@]1(C)O : > 30 µM

Consider now this further compound.
Query :: # return AC50 for "C[C@]12CC[C@H]3[C@@H](CCC4=CC(=O)CC[C@@]43C)[C@@H]1CC[C@@H]2O" , test system: UniProtKB P32245
Result :: > 10 µM

* * *

# target: Motilin receptor (Homo sapiens); also: assay procedure not described here
# Sequence (O43193 whole entry): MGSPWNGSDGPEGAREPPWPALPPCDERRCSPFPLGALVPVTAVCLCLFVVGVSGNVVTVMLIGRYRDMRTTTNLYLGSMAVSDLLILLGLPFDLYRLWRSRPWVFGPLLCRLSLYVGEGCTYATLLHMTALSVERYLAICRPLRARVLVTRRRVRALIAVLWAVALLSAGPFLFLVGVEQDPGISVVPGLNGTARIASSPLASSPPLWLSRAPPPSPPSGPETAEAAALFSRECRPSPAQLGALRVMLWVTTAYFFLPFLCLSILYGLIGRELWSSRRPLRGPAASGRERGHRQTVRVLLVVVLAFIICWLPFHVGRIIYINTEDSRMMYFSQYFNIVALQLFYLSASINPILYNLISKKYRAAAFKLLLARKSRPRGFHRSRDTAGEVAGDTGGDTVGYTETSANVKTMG
AC50 values for the compounds below.

Cc1cc(O)c(C(=O)N[C@@H](C(=O)N[C@@H]2C(=O)N3C(C(=O)O)=C(CSc4nnnn4C)CS[C@H]23)c2ccc(O)cc2)cn1 [CEFPIRAMIDE] : > 30 µM
C[C@H]1CNCCc2ccc(Cl)cc21 : > 30 µM
C=CCc1ccccc1OCC(O)CNC(C)C (stereo not given) : > 30 µM

Query :: Look up and report measured AC50 for this entry: CC(=O)NCCCS(=O)(=O)O [ACAMPROSATE]
Result :: > 30 µM

Query :: Look up and report measured AC50 for this entry: O=C(NCCN1CCOCC1)c1ccc(Cl)cc1 [MOCLOBEMIDE]
Result :: > 10 µM

Query :: Look up and report measured AC50 for this entry: Cc1c(OCC(F)(F)F)ccnc1C[S+]([O-])c1nc2ccccc2[nH]1 (stereo not given)
Result :: > 10 µM

Query :: Look up and report measured AC50 for this entry: CC(Oc1c(Cl)cccc1Cl)C1=NCCN1 (stereo not given)
Result :: > 30 µM

Query :: Look up and report measured AC50 for this entry: "C[C@]12CC[C@H]3[C@@H](CCC4=CC(=O)CC[C@@]43C)[C@@H]1CC[C@@H]2O"
Result :: > 10 µM

Query :: Look up and report measured AC50 for this entry: "NCC(=O)CCC(=O)O"
Result :: > 30 µM

Query :: Look up and report measured AC50 for this entry: "CC(C)C[C@H]1C(=O)N2CCC[C@H]2[C@]2(O)O[C@](NC(=O)[C@@H]3C=C4c5cccc6[nH]c(Br)c(c56)C[C@H]4N(C)C3)(C(C)C)C(=O)N12"
Result :: > 30 µM

* * *

AC50 values for the compounds below.
# target: UniProt P30518
# Sequence (P30518 whole entry): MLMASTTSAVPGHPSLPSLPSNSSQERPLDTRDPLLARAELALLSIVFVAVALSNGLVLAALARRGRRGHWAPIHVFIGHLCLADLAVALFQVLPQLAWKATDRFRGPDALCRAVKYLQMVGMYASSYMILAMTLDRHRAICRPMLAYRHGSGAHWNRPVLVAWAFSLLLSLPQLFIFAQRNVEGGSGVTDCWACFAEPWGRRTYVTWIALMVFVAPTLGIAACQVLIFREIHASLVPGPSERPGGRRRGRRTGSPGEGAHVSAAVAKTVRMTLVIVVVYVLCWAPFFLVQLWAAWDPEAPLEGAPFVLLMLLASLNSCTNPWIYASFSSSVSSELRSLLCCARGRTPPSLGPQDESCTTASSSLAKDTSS

Sample answers from the record:
CCOC(=O)[C@H](CCc1ccccc1)N[C@@H](C)C(=O)N1C(=O)N(C)C[C@H]1C(=O)O : > 30 µM
CC(C)(C)NCC(O)COc1cccc2c1CCC(=O)N2 (centres undefined) [CARTEOLOL] : > 10 µM
COc1ccc2c3c1O[C@H]1[C@@H](O)C=C[C@H]4[C@@H](C2)N(C)CC[C@@]341 [CODEINE] : > 30 µM

Query :: # return AC50 for COC(=O)[C@H]1[C@H]2C[C@@H]3c4[nH]c5cc(OC)ccc5c4CCN3C[C@H]2C[C@@H](OC(=O)/C=C/c2cc(OC)c(OC)c(OC)c2)[C@@H]1OC [RESCINNAMINE] , test system: UniProt P30518
Result :: > 10 µM

* * *

# target: D(3) dopamine receptor (Homo sapiens, UniProt P35462); also: assay procedure not described here
# Sequence (P35462 whole entry): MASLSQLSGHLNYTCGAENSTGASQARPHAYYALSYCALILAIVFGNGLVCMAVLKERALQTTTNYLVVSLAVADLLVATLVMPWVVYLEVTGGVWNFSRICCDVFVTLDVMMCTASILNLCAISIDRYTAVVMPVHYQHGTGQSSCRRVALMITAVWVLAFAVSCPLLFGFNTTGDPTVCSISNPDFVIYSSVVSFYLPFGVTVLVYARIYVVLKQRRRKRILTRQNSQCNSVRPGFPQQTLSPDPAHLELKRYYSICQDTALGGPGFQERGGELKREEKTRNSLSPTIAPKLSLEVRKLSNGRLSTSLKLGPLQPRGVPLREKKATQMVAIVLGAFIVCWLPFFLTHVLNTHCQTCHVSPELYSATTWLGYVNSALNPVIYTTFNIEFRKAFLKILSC
AC50 values for the molecules below.

Sample answers from the record:
Nc1nc(NC2CC2)c2ncn([C@H]3C=C[C@@H](CO)C3)c2n1 : > 30 µM
O=P1(NCCCl)OCCCN1CCCl (configuration not stated) [IFOSFAMIDE] : > 30 µM
CC(=O)NCCCS(=O)(=O)O [ACAMPROSATE] : > 30 µM
NCC(CC(=O)O)c1ccc(Cl)cc1 (configuration not stated) : > 30 µM
CCOC(=O)[C@H](CCc1ccccc1)N[C@@H](C)C(=O)N1[C@H](C(=O)O)C[C@@H]2CCC[C@@H]21 : > 10 µM
CCCC1O[C@@H]2C[C@H]3[C@@H]4CCC5=CC(=O)C=C[C@]5(C)[C@H]4[C@@H](O)C[C@]3(C)[C@]2(C(=O)CO)O1 (some centres not stated) [BUDESONIDE] : > 30 µM
NS(=O)(=O)Cc1noc2ccccc12 [ZONISAMIDE] : > 30 µM
CC(C(=O)O)c1ccc(N2Cc3ccccc3C2=O)cc1 (configuration not stated) : > 30 µM

Query :: # return AC50 for CCCC(C)C1(CC)C(=O)NC(=O)NC1=O (configuration not stated) , test system: D(3) dopamine receptor (Homo sapiens, UniProt P35462); also: assay procedure not described here
Result :: > 30 µM

Query :: # return AC50 for "CC(=O)O[C@H]1C[C@@H]2CC[C@@H]3[C@H](CC[C@@]4(C)[C@H]3C[C@H]([N+]3(C)CCCCC3)[C@@H]4OC(C)=O)[C@@]2(C)C[C@@H]1N1CCCCC1" , test system: D(3) dopamine receptor (Homo sapiens, UniProt P35462); also: assay procedure not described here
Result :: > 30 µM

Query :: # return AC50 for "CC/C(=C(\c1ccccc1)c1ccc(OCCN(C)C)cc1)c1ccccc1" , test system: D(3) dopamine receptor (Homo sapiens, UniProt P35462); also: assay procedure not described here
Result :: 2.9 µM

Query :: # return AC50 for "CC[C@H]1OC(=O)[C@H](C)[C@@H](O[C@H]2C[C@@](C)(OC)[C@@H](O)[C@H](C)O2)[C@H](C)[C@@H](O[C@@H]2O[C@H](C)C[C@H](N(C)C)[C@H]2O)[C@](C)(O)C[C@@H](C)CN(C)[C@H](C)[C@@H](O)[C@]1(C)O" , test system: D(3) dopamine receptor (Homo sapiens, UniProt P35462); also: assay procedure not described here
Result :: > 10 µM

Query :: # return AC50 for "Clc1ccc2nsnc2c1NC1=NCCN1" , test system: D(3) dopamine receptor (Homo sapiens, UniProt P35462); also: assay procedure not described here
Result :: > 10 µM
